System: Escherichia coli TOP10
experimental.details: shrunken log2 fold change of peptide-encoding DNA abundance (4.5 h post-induction vs induction); higher = less antimicrobial activity (less host growth inhibition)
condition.info: time post-induction: 4.5 h; library: site-saturation at positions 5, 18, 19, 20
recorded.endpoint: shrunken log2 fold change
Number, no unit, nothing else.

Some sequences with recorded shrunken log2 fold change:
seq.text	reported
RRIRDRPPRLPRPRPRPIDTPRP	-0.3
RRIRWRPPRLPRPRPRPKSHPRP	0.249
RRIRLRPPRLPRPRPRPKIYPRP	-0.492
RRIRFRPPRLPRPRPRPKMTPRP	-0.173
RRIRIRPPRLPRPRPRPHYRPRP	-0.204
RRIRHRPPRLPRPRPRPRFTPRP	0.007
RRIRWRPPRLPRPRPRPFHAPRP	0.0472
RRIRCRPPRLPRPRPRPEFWPRP	0.163
RRIRDRPPRLPRPRPRPGYYPRP	0.117
RRIRTRPPRLPRPRPRPGAPPRP	0.479

Kindly review the next sequence as well.
GET /values?readout=shrunken log2 fold change&item= RRIRDRPPRLPRPRPRPPQMPRP
0.746

* * *

Test system: Escherichia coli TOP10
experimental.details: shrunken log2 fold change of peptide-encoding DNA abundance (4.5 h post-induction vs induction); higher = less antimicrobial activity (less host growth inhibition)
condition.info: time post-induction: 4.5 h; library: site-saturation at positions 5, 18, 19, 20
Classification by shrunken log2 fold change follows these ranges: low class = under -0.02, middle class = from -0.02 up to 0.07, high class = 0.07 and over

Look over these answered cases.
seq.text	group.label
RRIRQRPPRLPRPRPRPWISPRP	low class
RRIRYRPPRLPRPRPRPTHLPRP	low class
RRIRTRPPRLPRPRPRPMWFPRP	high class
RRIRLRPPRLPRPRPRPNFGPRP	middle class
RRIRKRPPRLPRPRPRPKSGPRP	middle class
RRIRHRPPRLPRPRPRPDFSPRP	middle class
RRIRHRPPRLPRPRPRPPMRPRP	high class
RRIRWRPPRLPRPRPRPHQGPRP	high class

We next turn to a different sequence, shown below.
Could you tell me which band RRIRCRPPRLPRPRPRPFQKPRP belongs to?
middle class

* * *

Test system: Escherichia coli TOP10
experimental.details: shrunken log2 fold change of peptide-encoding DNA abundance (4.5 h post-induction vs induction); higher = less antimicrobial activity (less host growth inhibition)
condition.info: time post-induction: 4.5 h; library: site-saturation at positions 5, 18, 19, 20
recorded.endpoint: shrunken log2 fold change

seq.text	shrunken log2 fold change
RRIRRRPPRLPRPRPRPRHQPRP	0.277
RRIRPRPPRLPRPRPRPIIIPRP	-0.593
RRIRLRPPRLPRPRPRPMMAPRP	-0.137
RRIRVRPPRLPRPRPRPHENPRP	-0.38
RRIRIRPPRLPRPRPRPIWEPRP	-0.0114
RRIRLRPPRLPRPRPRPEAQPRP	0.375
RRIRLRPPRLPRPRPRPCAHPRP	-0.417
RRIRMRPPRLPRPRPRPQQPPRP	0.0363
RRIRLRPPRLPRPRPRPLAAPRP	0.345
RRIRHRPPRLPRPRPRPIQTPRP	-0.338

GET /values?readout=shrunken log2 fold change&item= RRIRERPPRLPRPRPRPIHQPRP
-1.22

GET /values?readout=shrunken log2 fold change&item= RRIRWRPPRLPRPRPRPRVMPRP
0.275

* * *

System: Escherichia coli TOP10
experimental.details: shrunken log2 fold change of peptide-encoding DNA abundance (4.5 h post-induction vs induction); higher = less antimicrobial activity (less host growth inhibition)
condition.info: time post-induction: 4.5 h; library: site-saturation at positions 5, 18, 19, 20
recorded.endpoint: shrunken log2 fold change

seq.text	shrunken log2 fold change
RRIRQRPPRLPRPRPRPKGIPRP	0.0655
RRIRMRPPRLPRPRPRPQNHPRP	-0.337
RRIRERPPRLPRPRPRPEDLPRP	0.0648

Give shrunken log2 fold change (Escherichia coli TOP10) of the following sequence: RRIRARPPRLPRPRPRPAGKPRP
0.164

Give shrunken log2 fold change (Escherichia coli TOP10) of the following sequence: RRIRFRPPRLPRPRPRPESRPRP
0.146

Give shrunken log2 fold change (Escherichia coli TOP10) of the following sequence: RRIRFRPPRLPRPRPRPWLGPRP
0.0212

Give shrunken log2 fold change (Escherichia coli TOP10) of the following sequence: RRIRARPPRLPRPRPRPWVEPRP
0.151

Give shrunken log2 fold change (Escherichia coli TOP10) of the following sequence: RRIRRRPPRLPRPRPRPPFTPRP
0.0961

* * *

Tested on: Escherichia coli TOP10
experimental.details: shrunken log2 fold change of peptide-encoding DNA abundance (4.5 h post-induction vs induction); higher = less antimicrobial activity (less host growth inhibition)
condition.info: time post-induction: 4.5 h; library: site-saturation at positions 5, 18, 19, 20
Label 1 (yes) when shrunken log2 fold change is at or above -0.03; otherwise label 0 (no).

Look over these answered cases.
seq.text	tgt	group.label
RRIRMRPPRLPRPRPRPSPYPRP	Escherichia coli TOP10	0 (no)
RRIRQRPPRLPRPRPRPSLPPRP	Escherichia coli TOP10	1 (yes)
RRIRDRPPRLPRPRPRPKGCPRP	Escherichia coli TOP10	1 (yes)
RRIRQRPPRLPRPRPRPCPGPRP	Escherichia coli TOP10	1 (yes)
RRIRKRPPRLPRPRPRPTKCPRP	Escherichia coli TOP10	0 (no)
RRIRSRPPRLPRPRPRPICWPRP	Escherichia coli TOP10	1 (yes)

We next turn to a different sequence, shown below.
Check this sequence for shrunken log2 fold change at or above -0.03: RRIRCRPPRLPRPRPRPADTPRP
1 (yes)

* * *

Test system: Escherichia coli TOP10
experimental.details: shrunken log2 fold change of peptide-encoding DNA abundance (4.5 h post-induction vs induction); higher = less antimicrobial activity (less host growth inhibition)
condition.info: time post-induction: 4.5 h; library: site-saturation at positions 5, 18, 19, 20
Label met when shrunken log2 fold change is at or above 0.03; otherwise label not met.

seq.text	tgt	group.label
RRIRHRPPRLPRPRPRPRYRPRP	Escherichia coli TOP10	not met

Check this sequence for shrunken log2 fold change at or above 0.03: RRIRSRPPRLPRPRPRPTYPPRP
not met

Check this sequence for shrunken log2 fold change at or above 0.03: RRIRWRPPRLPRPRPRPFKRPRP
met

Check this sequence for shrunken log2 fold change at or above 0.03: RRIRSRPPRLPRPRPRPLKRPRP
not met

* * *

Test system: Escherichia coli TOP10
experimental.details: shrunken log2 fold change of peptide-encoding DNA abundance (4.5 h post-induction vs induction); higher = less antimicrobial activity (less host growth inhibition)
condition.info: time post-induction: 4.5 h; library: site-saturation at positions 5, 18, 19, 20
# maps each entry to its shrunken log2 fold change

seq.text	reported
RRIRYRPPRLPRPRPRPDLDPRP	-0.181
RRIRRRPPRLPRPRPRPDNKPRP	-0.233
RRIRFRPPRLPRPRPRPDHGPRP	0.0405
RRIRPRPPRLPRPRPRPEEIPRP	-0.00277

GET /values?readout=shrunken log2 fold change&item= RRIRVRPPRLPRPRPRPIPQPRP
0.485

GET /values?readout=shrunken log2 fold change&item= RRIRPRPPRLPRPRPRPLQVPRP
0.013

GET /values?readout=shrunken log2 fold change&item= RRIRPRPPRLPRPRPRPRYPPRP
0.202

GET /values?readout=shrunken log2 fold change&item= RRIRRRPPRLPRPRPRPKTSPRP
2.22

* * *

System: Escherichia coli TOP10
experimental.details: shrunken log2 fold change of peptide-encoding DNA abundance (4.5 h post-induction vs induction); higher = less antimicrobial activity (less host growth inhibition)
condition.info: time post-induction: 4.5 h; library: site-saturation at positions 5, 18, 19, 20
Label yes when shrunken log2 fold change is at or above 0.3; otherwise label no.

seq.text	tgt	group.label
RRIRVRPPRLPRPRPRPRWRPRP	Escherichia coli TOP10	yes

We next turn to a different sequence, shown below.
Check this sequence for shrunken log2 fold change at or above 0.3: RRIRNRPPRLPRPRPRPDVFPRP
no

* * *

Tested on: Escherichia coli TOP10;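 note: peptides expressed intracellularly from a pBAD plasmid library in pooled LB shake-flask culture, induced with 0.3% L-arabinose, DNA abundance read by NGS, three biological replicates, DESeq2 with apeglm shrinkage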
experimental.details: shrunken log2 fold change of peptide-encoding DNA abundance (4.5 h post-induction vs induction); higher = less antimicrobial activity (less host growth inhibition)
condition.info: time post-induction: 4.5 h; library: site-saturation at positions 5, 18, 19, 20
Label TRUE when shrunken log2 fold change is at or above -0.05; otherwise label FALSE.

seq.text	tgt	group.label
RRIRLRPPRLPRPRPRPDPSPRP	Escherichia coli TOP10	TRUE
RRIRFRPPRLPRPRPRPSQKPRP	Escherichia coli TOP10	TRUE
RRIRIRPPRLPRPRPRPYMLPRP	Escherichia coli TOP10	FALSE
RRIRYRPPRLPRPRPRPNCNPRP	Escherichia coli TOP10	FALSE

Check this sequence for shrunken log2 fold change at or above -0.05: RRIRHRPPRLPRPRPRPKPQPRP
TRUE

Check this sequence for shrunken log2 fold change at or above -0.05: RRIRYRPPRLPRPRPRPTSYPRP
FALSE

Check this sequence for shrunken log2 fold change at or above -0.05: RRIRLRPPRLPRPRPRPKPAPRP
TRUE

Check this sequence for shrunken log2 fold change at or above -0.05: RRIRSRPPRLPRPRPRPFNLPRP
FALSE

Check this sequence for shrunken log2 fold change at or above -0.05: RRIRTRPPRLPRPRPRPIAQPRP
TRUE
